Recorded values, source patent US20250136687A1.

Target: T1, recombinant human CD3ε-ECD His protein (human, UniProt P07766 23-126)
T1 construct: extracellular domain; also called human CD3ε-His; CD3ε antigen protein; not shown: His tag
T1 sequence (P07766 23-126): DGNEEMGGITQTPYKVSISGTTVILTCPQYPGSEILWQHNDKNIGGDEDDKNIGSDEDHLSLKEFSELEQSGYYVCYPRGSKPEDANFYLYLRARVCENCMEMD
Test: SPR (Biacore), antibody captured on Protein A chip
Recorded pKd for the following binders
The value called pKd is obtained by taking minus log10 of the concentration in mol/L.

Please report pKd for the following binder: 6-44.5 human-murine chimeric antibody (antibody, human IgG1, kappa, V domains shown, Human IgG1 chimera) VH: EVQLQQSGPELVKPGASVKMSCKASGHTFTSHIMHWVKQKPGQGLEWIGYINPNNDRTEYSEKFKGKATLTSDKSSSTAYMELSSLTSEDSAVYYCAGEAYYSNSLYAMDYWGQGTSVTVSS VL: DIVMSQSPSSLAVSAGEKVTMSCKSSQSLFNSRTRKNYLAWYQQKPGQSPELLIYWASTRESGVPVRFTGSGSGTDFTLTISSVQAEDLAVYYCKQSYYLRTFGGGTKLEVKR
9.35

Please report pKd for the following binder: 1-22.6 human-murine chimeric antibody (antibody, human IgG1, kappa, V domains shown) VH: QIPLVQSGPELKKPGETVKISCKTSGYTFTSYGMSWVKQAPGKGLKWMGWINTYSGVPTYADDFKGRFVFSLDTSASTAFLQINNLKNEDTATYFCARLKNNPFCWGQGSTLTVFS VL: DVLMTQSPLSLPVRLGDQASISCRSSQLILHSNGNTYLEWYLQKPGQSPKLLIYKVSNRFSGVPDRFSGSGSGTDFTLKISRVEAEDLGVYYCFQGSHFPWTFGGGTKLEIKR
8.26
